test method notes: AUC (0 to infinity) in overnight-fasted male Sprague-Dawley rat at 150 mg/kg, po measured up to 12 hrs by HPLC analysis
Type: ADME, organism-based
conditions: in vivo
reported metric: AUC(0-inf) (ng·h/mL)

compound | data value
COc1cc([C@@H]2Oc3cc([C@H]4Oc5cc(O)cc(O)c5C(=O)[C@@H]4O)ccc3OC2CO)ccc1O (some centres not stated) | 494
COc1cc([C@@H]2Oc3cc([C@H]4Oc5cc(O)cc(O)c5C(=O)[C@@H]4O)ccc3OC2CS)ccc1O (some centres not stated) | 11600

----------
test method notes: Solubility in […] incubated for 10 mins
Format: physicochemical

compound | solubility
COc1cc(C2Oc3cc([C@H]4Oc5cc(O)cc(O)c5C(=O)[C@@H]4O)ccc3OC2CSSCC2Oc3ccc([C@H]4Oc5cc(O)cc(O)c5C(=O)[C@@H]4O)cc3O[C@H]2c2ccc(O)c(OC)c2)ccc1O (single isomer, unassigned) | > 1000 mg/mL
COc1cc([C@@H]2Oc3cc([C@H]4Oc5cc(O)cc(O)c5C(=O)[C@@H]4O)ccc3OC2CS)ccc1O (some centres undefined) | > 1000 mg/mL
COc1cc([C@@H]2Oc3cc([C@H]4Oc5cc(O)cc(O)c5C(=O)[C@@H]4O)ccc3OC2CO)ccc1O (some centres undefined) | 367 mg/mL
COc1cc([C@@H]2Oc3cc([C@H]4Oc5cc(O)cc(O)c5C(=O)[C@@H]4O)ccc3OC2CSC(C)=O)ccc1O (some centres undefined) | > 1000 mg/mL

This collection of values is drawn from ChEMBL document CHEMBL6182935.
